Every entry's value here was drawn from PubChem BioAssay.

System: TRPC4 (transient receptor potential cation channel C4 beta), mouse
experiment_description: positive allosteric modulators of mouse TRPC4, confirmation, cell-based, second round, Fluo-4, HEK293 TRPC4beta/mu-opioid, 1 µM (AID 2554)
condition_description: DAMGO EC20, Fluo-4 calcium flux, at 1 µM
Active and inactive are the calls of the source.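 How the source made its calls: active means primary screen hit whose fluorescence ratio, in both repeats, exceeds the weak agonist control mean by 3 SD; inactive means the rest.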
Assign a class; possible classes are 1 (yes) for active, 0 (no) for inactive

Before answering, review these 2 worked examples.
{"compound": "N=c1c[n+](CC23CC4CC(CC(C4)C2)C3)[n-]o1", "label": "0 (no)"}
{"compound": "COc1ccc(C(=O)C2CN(C)CC2c2ccc(Cl)cc2)cc1 (stereo not given)", "label": "0 (no)"}

Per the assay record, what outcome was assigned to CC1(C)CC(CCNCc2ccc3c(c2)OCO3)(Cc2ccccc2)CCO1 (stereo not given) ?
0 (no)

Per the assay record, what outcome was assigned to COc1ccc(C(CNC(=O)c2ccc3c(c2)CCC3)N(C)C)cc1 (stereo not given) ?
0 (no)

Per the assay record, what outcome was assigned to CCN1CCN(c2cc(N3CCCC3)c([N+](=O)[O-])cc2F)CC1 ?
1 (yes)

Per the assay record, what outcome was assigned to CCn1ccnc1CN1CCCC(C(=O)c2cccc(C(F)(F)F)c2)C1 (stereo not given) ?
0 (no)

Per the assay record, what outcome was assigned to Cc1ccc(Cl)cc1N1CCN(CCN)CC1 ?
0 (no)

Per the assay record, what outcome was assigned to CC(Cc1ccccc1Sc1ccccc1)N(C)C (stereo not given) ?
0 (no)

Per the assay record, what outcome was assigned to Clc1ccc(N2CCNCC2)nn1 ?
1 (yes)

====

system: Short transient receptor potential channel 6 (Mus musculus) (UniProt Q61143)
Sequence (Q61143 whole entry, looked up): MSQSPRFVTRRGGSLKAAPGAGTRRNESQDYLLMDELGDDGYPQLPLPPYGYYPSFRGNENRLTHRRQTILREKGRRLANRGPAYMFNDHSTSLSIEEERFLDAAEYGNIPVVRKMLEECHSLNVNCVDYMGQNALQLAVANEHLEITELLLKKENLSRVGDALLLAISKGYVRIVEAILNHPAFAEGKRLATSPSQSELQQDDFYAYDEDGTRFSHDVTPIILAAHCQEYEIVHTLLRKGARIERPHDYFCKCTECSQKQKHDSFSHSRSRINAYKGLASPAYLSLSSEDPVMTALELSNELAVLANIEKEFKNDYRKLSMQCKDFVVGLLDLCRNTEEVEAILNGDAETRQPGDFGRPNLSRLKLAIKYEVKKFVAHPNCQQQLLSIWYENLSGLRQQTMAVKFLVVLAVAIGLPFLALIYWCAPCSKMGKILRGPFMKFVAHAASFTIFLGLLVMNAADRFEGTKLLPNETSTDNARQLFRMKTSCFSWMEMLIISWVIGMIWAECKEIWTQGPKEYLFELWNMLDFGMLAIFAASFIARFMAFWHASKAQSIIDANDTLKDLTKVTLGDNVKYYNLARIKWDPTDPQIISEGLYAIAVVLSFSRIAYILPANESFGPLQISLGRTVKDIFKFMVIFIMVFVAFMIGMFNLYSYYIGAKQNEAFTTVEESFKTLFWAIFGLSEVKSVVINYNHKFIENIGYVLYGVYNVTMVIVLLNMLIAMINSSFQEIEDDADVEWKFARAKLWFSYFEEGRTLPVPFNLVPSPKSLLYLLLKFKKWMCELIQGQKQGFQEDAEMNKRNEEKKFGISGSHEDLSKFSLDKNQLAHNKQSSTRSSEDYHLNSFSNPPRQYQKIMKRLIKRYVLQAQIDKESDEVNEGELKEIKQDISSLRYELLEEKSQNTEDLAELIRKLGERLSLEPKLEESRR
experiment_description: activation of mouse TRPC6 channel, confirmation, selectivity assay for TRPC4 activator project, cell-based, HEK293, membrane potential dye, duplicate (AID 434950);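 on activation: 0% = buffer only wells and 100% = acetylcholine maximal-effect wells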
condition_description: HEK293 TRPC6, membrane potential fluorescence, at 10 µM
The source made the active and inactive calls.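 How the source made its calls: active means membrane potential signal rise above negative control mean plus 3 SD in both duplicates, also active in the earlier TRPC4 screen; inactive means the rest.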
Assign a class; possible classes are active, inactive

Before answering, review these 2 worked examples.
{"compound": "O=[N+]([O-])c1ccc(N2CCNCC2)cc1NC1CC1", "system": "Short transient receptor potential channel 6 (Mus musculus) (UniProt Q61143)", "label": "inactive"}
{"compound": "COc1ccccc1CC(=O)N1CCN(CCc2ccccc2)CC1", "system": "Short transient receptor potential channel 6 (Mus musculus) (UniProt Q61143)", "label": "active"}

Per the assay record, what outcome was assigned to COc1ccc(C(CNC(=O)c2ccc3c(c2)CCC3)N(C)C)cc1 (stereo not drawn) ?
active

Per the assay record, what outcome was assigned to Cc1ccccc1C(O)(Cc1ccccc1)C1CN2CCC1CC2 (stereo not drawn) ?
active

Per the assay record, what outcome was assigned to Cc1cccc(N2CCc3c2nc2ccccc2c3N)c1 ?
inactive

Per the assay record, what outcome was assigned to COC(=O)C1=CCCN(C)C1 ?
active

Per the assay record, what outcome was assigned to CC1(C)CC(CCNCc2ccc3c(c2)OCO3)(Cc2ccccc2)CCO1 (stereo not drawn) ?
active

Per the assay record, what outcome was assigned to Cc1ccccc1CN1CCNCC1 ?
inactive

Per the assay record, what outcome was assigned to CCOC(=O)C1(CCc2ccccc2)CCN(Cc2csc(C(C)=O)c2)CC1 ?
active

Per the assay record, what outcome was assigned to CN(CCOc1ccc(C=C2C(=O)NC(=O)NC2=O)cc1)c1ccccn1 ?
inactive

Per the assay record, what outcome was assigned to CN(C)CCn1cnc2ccccc21 ?
inactive

Per the assay record, what outcome was assigned to O=C(c1ccc2c3c(cccc13)CC2)C1CCCN(CC2CC2)C1 (stereo not drawn) ?
active

Per the assay record, what outcome was assigned to CCC1=Nc2cc(C(=O)N3CCC4(CC3)OCCO4)ccc2Sc2ccc(C)cc21 ?
inactive

Per the assay record, what outcome was assigned to CCc1n[nH]c(CCN)n1 ?
inactive

Per the assay record, what outcome was assigned to CN(C)C(CNC(=O)Cc1c(Cl)cccc1Cl)c1ccccc1 (stereo not drawn) ?
active

Per the assay record, what outcome was assigned to CCOC(=O)C1(CCc2ccccc2)CCN(Cc2ccc(NC(C)=O)cc2)CC1 ?
active

Per the assay record, what outcome was assigned to Cc1ccsc1C(=O)C1CCCN(Cc2ccccc2O)C1 (stereo not drawn) ?
inactive

Per the assay record, what outcome was assigned to COc1ccc(Br)cc1CN1CCN(C(=O)Cc2ccccc2)CC1 ?
inactive

Per the assay record, what outcome was assigned to COc1ccc2c(c1O)C13CCN(C)C(C2)C1CCC(=O)C3 (stereo not drawn) ?
active

Per the assay record, what outcome was assigned to CC(Cc1ccccc1Sc1ccccc1)N(C)C (stereo not drawn) ?
inactive

Per the assay record, what outcome was assigned to Clc1ccc(N2CCNCC2)nn1 ?
inactive

Per the assay record, what outcome was assigned to O=C(CCCc1ccccc1)NCCc1cnc[nH]1 ?
inactive

Per the assay record, what outcome was assigned to Nc1cc(N2CCNCC2)ccc1[N+](=O)[O-] ?
inactive

Per the assay record, what outcome was assigned to Fc1cccc(C2NCCc3[nH]cnc32)c1 (stereo not drawn) ?
inactive

Per the assay record, what outcome was assigned to Cc1cc(OC(C)C(=O)NCc2ccncc2)c2c3c(c(=O)oc2c1)CCCC3 (stereo not drawn) ?
inactive
